The reported numbers originate from ChEMBL document CHEMBL1201862.

- Test system: K562
- TEST METHOD NOTES: NCI tumour cell line growth inhibition, 48 h
Active and inactive are the calls of the source. No stated cut-off is given here; in the data, active = GI50 up to about 1.1 µM and inactive = higher.
READOUT NAME: GI50

Ask | Supply GI50 value. Item: "O=C(Cn1c2ccc(Br)cc2c2nc3ccccc3nc21)NCc1ccccc1"
Reply | > 100 µM (inactive)

Ask | Give GI50 for the following compound: "Fc1cc(C2=Nn3c(CNc4ccc(Cl)cc4)nnc3S/C2=C\c2ccc(-c3ccc(Cl)cc3)o2)c(Cl)cc1Cl"
Reply | 11.9 µM (inactive)

Ask | // fetch GI50 given entry C=CCCCN1C(=O)C2C3c4ccccc4C(C=O)(c4ccccc43)C2C1=O (stereo unspecified)
Reply | 3.62 µM (inactive)

Ask | Look up GI50 of "COc1ccc(C[n+]2cccc(O)c2)cc1" and report it.
Reply | > 100 µM (inactive)

Ask | Return the recorded GI50 value; entry: CC1(CCCO)CCCCCC(C)(CCCO)C1=O (stereo unspecified)
Reply | > 100 µM (inactive)

Ask | Identify measured GI50 corresponding to "Cc1sc2nc3n(c(=O)c2c1C)N=CN(c1ccc(Cl)cc1)C3"
Reply | > 100 µM (inactive)

Ask | Determine from records and report GI50 for "COc1cccc(Nc2nc(N)nc(N)c2N)c1"
Reply | 37.2 µM (inactive)

Ask | Return value of GI50 for input "O=c1oc2ccc([N+](=O)[O-])cc2c(Nc2ccc3c(c2)Sc2ccccc2O3)c1[N+](=O)[O-]" , no commentary.
Reply | 24.2 µM (inactive)

Ask | For the compound "Cc1ccccc1Nc1nc2ccccc2nc1NS(=O)(=O)c1ccccc1" , report GI50.
Reply | > 100 µM (inactive)

Ask | Give a short answer stating reported GI50 for O/N=C1/Nc2ccccc2C(=S)N2CSCC12 (stereo unspecified) .
Reply | 22.8 µM (inactive)

Ask | Provide only the value of recorded GI50 for "CCOC(=O)c1ccc(/N=C2\S/C(=C\C(=S)Nc3ccccc3)N(c3ccccc3)\C2=N/c2ccc(C(=O)OCC)cc2)cc1"
Reply | > 100 µM (inactive)

====

- Test system: HCC 2998
- TEST METHOD NOTES: NCI tumour cell line growth inhibition, 48 h
Calls of active or inactive are those of the source. Cut-off read from the data, not from the text of the source: active = GI50 up to about 1.1 µM and inactive = higher.
Answer each item with its documented GI50.

Ask | For the compound "CNC(=O)c1nn[nH]c1O" , give its measured GI50 value.
Reply | > 100 µM (inactive)

Ask | Write down GI50 measured for item C=CCCCN1C(=O)C2C3c4ccccc4C(C=O)(c4ccccc43)C2C1=O (stereo not given)
Reply | 14.7 µM (inactive)

Ask | Find the measured GI50 of CCOC(=O)C(NC(=O)c1ccccc1)(N1CCN(c2cc3c(cc2F)c(=O)c(C(=O)O)cn3CC)CC1)C(F)(F)F (stereo not given) and report it.
Reply | 52.2 µM (inactive)

Ask | Give reported GI50 value for COC(=O)/C(=N\N)C(C(=O)C(=O)Nc1cccc([N+](=O)[O-])c1)c1nc2ccc(C(=O)c3ccccc3)cc2nc1O (stereo not given)
Reply | > 100 µM (inactive)

Ask | Retrieve GI50 measured for C=CCc1ccccc1C1CC2(C(=O)OC)OC1C(C(=O)OC)=C2C(=O)OC (stereo not given) and print it.
Reply | > 10 µM (inactive)

Ask | Please give the documented GI50 of CSC1C(=O)Nc2ccc3ccccc3c21 (stereo not given)
Reply | > 100 µM (inactive)

Ask | Supply recorded GI50 for "O=C1c2ccccc2C(=O)c2c(NCCCNCCO)ccc(NCCCNCCO)c21" here.
Reply | 5.37 µM (inactive)

Ask | Let me know recorded GI50 for CC#CC(O)(C(=O)OC1CCCN(C)C1)C1=CC=CCC1 (stereo not given) , thanks.
Reply | > 100 µM (inactive)

Ask | Tell me its GI50 given COC(=O)C1=C(CO)C2C=CC1C2 (stereo not given) as the entry.
Reply | > 100 µM (inactive)

Ask | For the compound "COC(=O)c1cccc(OC)c1C#Cc1c(OC)cccc1OC" , give its reported GI50.
Reply | > 100 µM (inactive)

Ask | Provide GI50 value for the following compound: "O=C(CCCN1CC=C(n2c(=O)[nH]c3ccccc32)CC1)c1cccs1"
Reply | > 100 µM (inactive)

Ask | Quickly give me recorded GI50 for O=C(CCCCCC(=O)N1CC(CCl)c2ccc([N+](=O)[O-])cc21)N1CC(CCl)c2ccc([N+](=O)[O-])cc21 (stereo not given)
Reply | 23.7 µM (inactive)

Ask | // fetch GI50 given entry "COc1cccc(/C=C/c2ccnc3ccccc23)c1OC"
Reply | > 10 µM (inactive)

Ask | Dear colleague, please send me the reported GI50 for O=C(CC(=O)N1N=C(n2ccc3ccccc32)CC1c1ccccc1)Nc1ccc(Cl)cc1 (stereo not given) when you can.
Reply | > 100 µM (inactive)

Ask | In one line, give reported GI50 of the entry COC(=O)NC(=O)c1cn(C2OC(CO)C(O)C2O)c(=O)[nH]c1=O (stereo not given) .
Reply | > 100 µM (inactive)

Ask | Identify GI50 associated with the compound CC(C)=CCC(OC(=O)C=C(C)C)c1cc(O)c2c(c1O)C(=O)C=CC2=O (stereo not given)
Reply | 2.4 µM (inactive)

Ask | Kindly indicate its recorded GI50. Item: Cc1nc2c3c(ncn2n1)Oc1c(c(-c2ccccc2)nn1-c1ccccc1)C3c1ccc(Cl)cc1 (stereo not given)
Reply | > 100 µM (inactive)

Ask | Return reported GI50. Input compound: "NCc1ccc(O)c(O)c1"
Reply | > 100 µM (inactive)

Ask | Give the measured GI50 for "CC(=O)O[C@H]1CC[C@@]2(C)C(=CC[C@@H]3[C@@H]2CC[C@]2(C)C(=O)/C(=C\c4ccccc4)C[C@@H]32)C1"
Reply | > 100 µM (inactive)

Ask | Specify measured GI50 for COC(=O)[C@H]1C=C[C@H](OC2OC(COC(C)=O)C(OC(C)=O)C(OC(C)=O)C2OC(C)=O)n2c(=O)n(-c3ccccc3)c(=O)n21 (stereo not given in full) .
Reply | 2.23 µM (inactive)

Ask | Using the record for "Brc1ccccc1-c1ncc(-c2ccccc2)o1" , state its measured GI50.
Reply | 30 µM (inactive)

Ask | Give the reported value of GI50 for this record: "Cc1ccc(/C=N/Nc2cc(C)c3ccccc3n2)s1"
Reply | 15.3 µM (inactive)

Ask | Answer with reported GI50 of "O=c1c(-c2ccccc2)c(SCCN2CCCCCC2)n(-c2ccccc2)c(=S)n1-c1ccccc1"
Reply | 3.52 µM (inactive)

Ask | Specify GI50 for "CC1(C)CC(=O)c2c(nc(SSc3nc4c(c(-c5ccccc5)c3C#N)C(=O)CC(C)(C)C4)c(C#N)c2-c2ccccc2)C1" and stop.
Reply | > 10 µM (inactive)

Ask | Look up GI50 of CCOc1ccc2nc(NC(=O)/C(CC(=O)CC(C3=C(O)c4ccccc4CC3=O)c3ccccc3)=N\O)sc2c1 (stereo not given) and report it.
Reply | > 100 µM (inactive)

Ask | // fetch GI50 given entry "O=[N+]([O-])c1ccc(NN/N=N/c2ccc(-c3nc4ccccc4[nH]3)cc2)c([N+](=O)[O-])c1"
Reply | 31 µM (inactive)

Ask | Annotate the compound "COCCN1C2=CCCCC2=Nc2c(N)nc(N)nc21" with its measured GI50.
Reply | > 100 µM (inactive)

Ask | # return recorded GI50 for input Cc1cccc2c1[C@]13OC(C)[C@]4(C)CC5OC(=O)[C@@]1(C)[C@@H]5[C@]34C(=O)O2 (stereo not given in full)
Reply | > 100 µM (inactive)

Ask | Give recorded GI50. "O=c1c2ccccc2c(=O)n2n1-c1cccc(c1)CSSCc1cccc-2c1"
Reply | > 10 µM (inactive)

Ask | Return GI50 for the following compound: COC(=O)C1C(O)CCC2CN3CCc4c([nH]c5cccc(OC)c45)C3CC21 (stereo not given)
Reply | > 100 µM (inactive)

====

- Test system: SF-268
- TEST METHOD NOTES: NCI tumour cell line growth inhibition, 48 h
Activity calls are given as the source filed them. Cut-off read from the data, not from the text of the source: active = GI50 up to about 1.1 µM and inactive = higher.
Outcome (select one): TRUE = active, FALSE = inactive

Ask | I would be grateful if you could indicate the recorded call for CC1CN=C(Nc2ccc(S(N)(=O)=O)cc2)S1 (centres undefined) .
Reply | FALSE

Ask | Identify the outcome logged in this assay for the molecule shown: "Cc1cc(NS(=O)(=O)c2ccc(/N=N/c3c(O)c(C(=O)O)cc4ccccc34)cc2)nc(C)n1"
Reply | FALSE

Ask | // outcome(item) with item = "O=C(Cc1ccccc1)NN1C(=O)/C(=C\c2ccc([N+](=O)[O-])cc2)S/C1=N\c1ccccc1"
Reply | FALSE

Ask | // outcome(item) with item = "Cc1ccc(/C=N/Nc2cc(C)c3ccccc3n2)s1"
Reply | FALSE

Ask | In this assay, the call recorded for CCN(CC)CCC(=O)OC1C(C)=CC(C)C(=O)CC(C(C)CC2CCC(O)C(OC)C2)OC(=O)C2CCCCN2C(=O)C(=O)[C@@]2(O)OC(CCC2C)CC(OC)\C(C)=C/C=C/C=C/C(C)CC(C)C(=O)C1OC (some centres undefined) was what?
Reply | TRUE

Ask | Dear colleague, could you share the recorded outcome for "CN(C)C(=C1c2cc([N+](=O)[O-])ccc2-c2ccc([N+](=O)[O-])cc21)N(C)C" when you have a moment?
Reply | FALSE

Ask | Answer briefly: the call reported for "Cn1c(=O)c2c([nH]/c(=N/N=C/c3ccccc3C(=O)O)n2C)n(C)c1=O" in this assay.
Reply | FALSE

Ask | Write down the call the test reported for this molecule. Item: "COc1ccc2c(c1)CC1=C(O2)c2ccc(OC)cc2OC1"
Reply | FALSE

Ask | # outcome recorded in this test, key = O=C1CSC(c2ccccc2[N+](=O)[O-])N1c1ccc(-n2c(-c3ccccc3)nc3ccccc3c2=O)cc1 (centres undefined)
Reply | FALSE
